molecular target: Kras and SOS1 (biotin-tagged human Kras loaded with GDP, His-tagged human SOS1) (Homo sapiens, UniProt P01116, G12D); construct: made in house; host or cells: E. coli (stated for Kras only); assay: Protein-protein interaction inhibition between Kras and SOS1 (KrasGl2D-SOS PPI) using AlphaScreen; assay type: binding; settings: AlphaScreen; biotin-tagged human Kras loaded with GDP, His-tagged human SOS1; read-out: KRAS G12D-SOS PPI IC50
Sequence (P01116 1-188 isoform P01116-2 G12D): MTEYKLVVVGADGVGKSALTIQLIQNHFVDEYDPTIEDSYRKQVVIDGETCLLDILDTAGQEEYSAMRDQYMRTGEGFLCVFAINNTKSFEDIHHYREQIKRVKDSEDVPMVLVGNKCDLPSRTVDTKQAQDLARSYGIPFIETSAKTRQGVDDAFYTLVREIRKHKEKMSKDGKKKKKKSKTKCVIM
Positions of bridges follow the written chain, without caps; N, C: chain ends. Non-standard residues stand in square brackets, D forms with d. Residues, ends and D or L forms follow the SMILES beside them. *: point of attachment. hPhe(3-Cl-4-CF3) = N[C@@H](CCc1ccc(C(F)(F)F)c(Cl)c1)C(=O)O; NMeAbu(4,4,4-F3) = CN[C@@H](CC(F)(F)F)C(=O)O; NMePhe(4-Me) = CN[C@@H](Cc1ccc(C)cc1)C(=O)O; Phe(3-I) = N[C@@H](Cc1cccc(I)c1)C(=O)O; NMeCha = CN[C@@H](CC1CCCCC1)C(=O)O; NMeChg = CN[C@H](C(=O)O)C1CCCCC1; NMeD = CN[C@@H](CC(=O)O)C(=O)O; NMeL = CN[C@@H](CC(C)C)C(=O)O; NMeV = CN[C@H](C(=O)O)C(C)C; d(β3hA) = C[C@@H](N)CC(=O)O; NMeS = CN[C@@H](CO)C(=O)O; NMeA = CN[C@@H](C)C(=O)O; NMeAib = CNC(C)(C)C(=O)O; Piperidide = C1CCN(*)CC1; Ac5c = NC1(C(=O)O)CCCC1; Aze = O=C(O)[C@@H]1CCN1; CH2CMe2OH = CC(C)(O)C*; Cyclobutyl = C1CC(*)C1; Aib = CC(C)(N)C(=O)O; Cyclopropyl = C1CC1*; Isopentyl = CC(C)CC*; NEtG = CCNCC(=O)O; Sar = CNCC(=O)O
Property: log10 IC50 (log10 of the value in nM)
Reminder: these figures are log10 of reported IC50, in nM before transformation.

// query Can you look up the measured log10 IC50 of CC(C)C[C@H]1C(=O)N[C@@H](COC2CCC2)C(=O)N(C)CC(=O)N(C)CC(=O)N(C)[C@@H](CC2CCCCC2)C(=O)N(C)CC(=O)N[C@@H](CCc2ccc(C(F)(F)F)c(Cl)c2)C(=O)N2CCC[C@H]2C(=O)NC2(CCCC2)C(=O)N(C)[C@@H](C2CCCCC2)C(=O)N(C)[C@H](C(=O)N2CCCCC2)CC(=O)N1C [Compound 226] ([NMeL]S(Cyclobutyl)[Sar][Sar][NMeCha][Sar][hPhe(3-Cl-4-CF3)]P[Ac5c][NMeChg][NMeD]-Piperidide; lactam N-11) for me?
// result 0.54

// query Also check CC[C@H](C)[C@@H]1NC(=O)[C@H](CC(C)C)N(C)C(=O)C[C@@H](C(=O)N2CCCCC2)N(C)C(=O)[C@H](C2CCCCC2)N(C)C(=O)C2(CCCC2)NC(=O)[C@@H]2CCCN2C(=O)[C@H](CCc2ccc(C(F)(F)F)c(Cl)c2)NC(=O)CN(C)C(=O)[C@H](CC(F)(F)F)N(C)C(=O)CN(C)C(=O)CN(C)C1=O [Compound 1841] ([NMeL]I[Sar][Sar][NMeAbu(4,4,4-F3)][Sar][hPhe(3-Cl-4-CF3)]P[Ac5c][NMeChg][NMeD]-Piperidide; lactam N-11)
// result 0.64

// query Likewise for CC[C@H](C)[C@@H]1NC(=O)[C@H](CC(C)C)N(C)C(=O)C[C@@H](C(=O)N2CCCCC2)N(C)C(=O)[C@H](CC(C)C)NC(=O)C(C)(C)N(C)C(=O)[C@H](Cc2ccc(OC)cc2)NC(=O)[C@H](Cc2cccc(I)c2)NC(=O)CN(C)C(=O)[C@H](Cc2ccc(C)cc2)N(C)C(=O)[C@@H]2CCN2C(=O)[C@H](C)N(C)C1=O [Compound 703] ([NMeL]I[NMeA][Aze][NMePhe(4-Me)][Sar][Phe(3-I)]Y(Me)[NMeAib]L[NMeD]-Piperidide; lactam N-11) ?
// result 0.93

// query Again, but for CC[C@H](C)[C@@H]1NC(=O)[C@H](CC(C)C)N(C)C(=O)C[C@@H](C)NC(=O)[C@H](CC(C)C)N(C)C(=O)C(C)(C)NC(=O)[C@H](COCC(C)(C)O)N(C)C(=O)[C@H](CCc2ccc(C(F)(F)F)c(Cl)c2)NC(=O)CN(C)C(=O)[C@H](COCCC(C)C)N(C)C(=O)[C@@H]2CCN2C(=O)CN(CC)C1=O [Compound 1472] (cyclo([Aib][NMeL][d(β3hA)][NMeL]I[NEtG][Aze][NMeS](Isopentyl)[Sar][hPhe(3-Cl-4-CF3)][NMeS](CH2CMe2OH)))
// result 1.83

// query Same again, this time with CC[C@H](C)[C@@H]1NC(=O)[C@H](CC(C)C)N(C)C(=O)C[C@@H](C(=O)N2CCCCC2)N(C)C(=O)[C@H](C(C)C)N(C)C(=O)C2(CCCC2)NC(=O)[C@@H]2CCCN2C(=O)[C@H](CCc2ccc(C(F)(F)F)c(Cl)c2)NC(=O)CN(C)C(=O)[C@H](COC2CC2)N(C)C(=O)[C@@H]2CCN2C(=O)[C@H](C)N(C)C1=O [Compound 1738] ([NMeL]I[NMeA][Aze][NMeS](Cyclopropyl)[Sar][hPhe(3-Cl-4-CF3)]P[Ac5c][NMeV][NMeD]-Piperidide; lactam N-11)
// result 1.04

====

Target: Kras and SOS1 (biotin-tagged human Kras loaded with GDP, His-tagged human SOS1) (Homo sapiens, UniProt P01116, G12D)
Construct: made in house; host or cells: E. coli (stated for Kras only)
Assay: Protein-protein interaction inhibition between Kras and SOS1 (KrasGl2D-SOS PPI) using AlphaScreen
Format: binding
Conditions: AlphaScreen; biotin-tagged human Kras loaded with GDP, His-tagged human SOS1; read-out: KRAS G12D-SOS PPI IC50
Protocol: Protein-Protein Interaction Inhibition Between Kras and SOS1 (KrasGl2D-SOS PPI) Using AlphaScreen Protein-protein interaction inhibition (PPI) between Kras and SOS1 was measured by energy transfer from nickel-conjugated donor beads to streptavidin-conjugated acceptor beads using biotin-tagged human Kras expressed in E. coli and loaded with GDP after purification and His-tagged human SOS1 enzyme. […]
Positions of bridges follow the written chain, without caps; N, C: chain ends. Non-standard residues stand in square brackets, D forms with d. Residues, ends and D or L forms follow the SMILES beside them. *: point of attachment. hPhe(3-Cl-4-CF3) = N[C@@H](CCc1ccc(C(F)(F)F)c(Cl)c1)C(=O)O; NMeGly(cPent) = CN[C@H](C(=O)O)C1CCCC1; NMeCha = CN[C@@H](CC1CCCCC1)C(=O)O; NMeD = CN[C@@H](CC(=O)O)C(=O)O; NMeL = CN[C@@H](CC(C)C)C(=O)O; Pyrrolidide = C1CCN(*)C1; Ac5c = NC1(C(=O)O)CCCC1; Sar = CNCC(=O)O
Property: IC50 (nM)
// units = nM; emit number, no label

// query Form field: reported IC50 of CC[C@H](C)[C@@H]1NC(=O)[C@H](CC(C)C)N(C)C(=O)C[C@@H](C(=O)N2CCCC2)N(C)C(=O)[C@H](C2CCCC2)N(C)C(=O)C2(CCCC2)NC(=O)[C@@H]2CCCN2C(=O)[C@H](CCc2ccc(C(F)(F)F)c(Cl)c2)NC(=O)CN(C)C(=O)[C@H](CC2CCCCC2)N(C)C(=O)CN(C)C(=O)CN(C)C1=O [Compound 1818] ([NMeL]I[Sar][Sar][NMeCha][Sar][hPhe(3-Cl-4-CF3)]P[Ac5c][NMeGly(cPent)][NMeD]-Pyrrolidide; lactam N-11)
// result 0.4
